Hey, just so you know, these numbers are from patent US8008547B2.

- Test summary: Standard protocol for determination of kcat and KM (continuous spectrophotometric assay, Acetyl CoA hydrolysis at 235 nm)
- Assay type: biochemical
- Details: purified protein; about 23° C.; pH 6.8; 0.2 mM acetyl CoA; glyphosate 0.125 to 10 mM
Give measured Km for each item. Keep answers brief.

[
  {
    "Molecule": "SEQ ID NO: 367: GAT polypeptide (protein, 4B_13E1, GAT polypeptide) MIEVKPINAEDTYEIRHRILRPNQPLEACKYETDLLGGTFHLGGYYRGKLISIASFHQAEHPELEGQKQYQLRGMATLEEYREQKAGSTLIRHAEELLRKKGADLLWCNARISASGYYEKLGFSEQGEVYDIPPIGPHILMYKKLT",
    "Km": "2000 µM"
  }
]

Proceed to the following item.
Query: Could you please provide reported Km for SEQ ID NO: 285: GAT polypeptide (protein, 11H3, GAT polypeptide) MIEVKPINAEDTYEIRHRILRPNQPLEACMYETDLLGGAFHLGGYYQGKLISIASFHKAEHSELEGQKQYQLRGMATLEGYREQKAGSTLIRHAEELLRKKGADLLWCNARTSVRGYYEKLGFSEQGGVYDIPPIGPHILMYKKLT ? Thanks!
Response: 1400 µM
